tested on: LCK; details: concentration: 1 μM, replicates: in singlicate; n = 1;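 note: KINOMEscan kinase panel screen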
Measured %Inh of individual entries
metric.name: %Inh (%)

1) Cl.c1ccc(Cn2ccc3cc(Nc4ncnc5ccccc45)ccc32)cc1
41
2) NC(=O)c1sc(-n2cnc3ccccc32)cc1OCc1ccccc1F
9
3) Nc1nc(-c2cccnc2)c(-c2ccnc3ccccc23)s1
17
4) CC(C)(C)c1ccc(-n2cnc3c(N)ncnc32)cc1
8
5) CN1c2ccc(-c3ccc(C(=O)NCCO)cc3)cc2-c2[nH]ncc2S1(=O)=O
28
6) Fc1cccc(COc2ccc(Nc3ncnc4cc[nH]c34)cc2Cl)c1
25
7) O=c1cc(N2CCOCC2)nc2n(Cc3cccc(Cl)c3)ccn12
17
8) COc1ccc(Nc2nccc(N3CCC(NC(=O)c4cccc(NC(C)=O)c4)C3)n2)cc1 (stereo not drawn)
9
9) Nc1nc(-c2ccccn2)c(-c2ccnc3ccccc23)s1
10

Origin of measurements: paper PMC5540273
